Values compiled from patent US20220218708A1.

Reported values of pIC50 for individual entries
tested on: SW684 cells; assay: Cell viability (WST-1) dose response; assay type: cell-based; settings: Homo sapiens, 72 hours
pIC50: −log10 of the molar value.

Cc1ccc(Nc2nccc(N(C)c3ccc4c(C)n(C)nc4c3)n2)cc1S(N)(=O)=O < 5.00

// query # pIC50 lookup, item `Cc1nc(Nc2ncc(C(=O)Nc3c(C)cccc3Cl)s2)cc(N2CCN(CCO)CC2)n1`
// result 7.20

// query # pIC50 lookup, item `CCN(CC)CCNC(=O)c1c(C)[nH]c(/C=C2\C(=O)Nc3ccc(F)cc32)c1C`
// result < 5.00

* * *

Reported values of IC50 for individual entries
system: MES-SA cells; test: Cell viability (WST-1) dose response; assay type: cell-based; conditions: Homo sapiens, 72 hours

The cases that follow already have their IC50 on record.
Cc1ccc(Nc2nccc(N(C)c3ccc4c(C)n(C)nc4c3)n2)cc1S(N)(=O)=O > 10 µM
CCN(CC)CCNC(=O)c1c(C)[nH]c(/C=C2\C(=O)Nc3ccc(F)cc32)c1C > 10 µM

Now take the following molecule into account.
// query # IC50 lookup, item `Cc1nc(Nc2ncc(C(=O)Nc3c(C)cccc3Cl)s2)cc(N2CCN(CCO)CC2)n1`
// result > 10 µM
